system: LNCap cells; assay: Cell viability assay, LNCap; format: cell-based; conditions: Homo sapiens, 144 h; LNCap cells, 6 days, CellTiterGlo; read-out: LNCap (GI50)
READOUT TYPE: GI50

Given item `CC[C@@]1(O)C(=O)OCc2c1cc1n(c2=O)Cc2cc3c(CN4CCC(N(C)C(=O)CO[C@H]5CC[C@H]6[C@@H]7CC[C@H]8CC(=O)CC[C@]8(C)[C@H]7CC[C@]56C)CC4)c(O)ccc3nc2-1` , the value recorded as its GI50 is 10 to 500 nM

Given item `CC[C@@]1(O)C(=O)OCc2c1cc1n(c2=O)Cc2cc3c(CN(C)C)c(OCCCCCOc4ccc(C(=O)N[C@H]5CC[C@H](Oc6ccc(C#N)c(Cl)c6)CC5)cc4)ccc3nc2-1` , the value recorded as its GI50 is 10 to 500 nM

====

System: LNCap cells
Assay: Cell viability assay, LNCap
Format: cell-based
Conditions: Homo sapiens, LNCaP, 144 h, read-out: LNCap (GI50, nM)
Description: Cell viability assay: LNCap, 22Rv1, MCF7, MDAMB361, T47D, and IEC6 cells are seeded at a density of 500-2000 cells/well in 96 well plates, and a ‘T0’ (timepoint 0) was included along with the assay plate. The plates are then incubated at 37° C., 5% CO2 in a cell culture incubator overnight. […] After the incubation period, the plates are assayed using CellTiterGlo (Promega, Inc) according to the manufacturer's instructions and luminescence was read on the EnVision plate reader. […]
For each entry below, report its GI50 value.

Given item `CC[C@@]1(O)C(=O)OCc2c1cc1n(c2=O)Cc2cc3c(CN(C)C)c(OC(=O)N4[C@H](C)CN(CCCCCCN(C)c5ccc([C@H]6C[C@@]7(C)[C@@H](CC[C@]7(OC(C)=O)C(C)=O)[C@@H]7CCC8=CC(=O)CCC8=C76)cc5)C[C@H]4C)ccc3nc2-1` , the value recorded as its GI50 is 501 to 1000 nM

Given item `CCc1c2c(nc3ccc(OC(=O)N4CCN(C(=O)CCCCCN(C)c5ccc([C@H]6C[C@@]7(C)[C@@H](CC[C@]7(OC(C)=O)C(C)=O)[C@@H]7CCC8=CC(=O)CCC8=C76)cc5)CC4)cc13)-c1cc3c(c(=O)n1C2)COC(=O)[C@]3(O)CC` , the value recorded as its GI50 is 10 to 500 nM

Given item `CCc1c2c(nc3ccc(OC(=O)N4CCN(CCCCCCN(C)c5ccc([C@H]6C[C@@]7(C)[C@@H](CC[C@]7(OC(C)=O)C(C)=O)[C@@H]7CCC8=CC(=O)CCC8=C76)cc5)CC4)cc13)-c1cc3c(c(=O)n1C2)COC(=O)[C@]3(O)CC` , the value recorded as its GI50 is 10 to 500 nM

Given item `CC[C@@]1(O)C(=O)OCc2c1cc1n(c2=O)Cc2cc3c(COC(C)(C)C)c(OC(=O)N4CCN(CCCCCCN(C)c5ccc([C@H]6C[C@@]7(C)[C@@H](CC[C@]7(OC(C)=O)C(C)=O)[C@@H]7CCC8=CC(=O)CCC8=C76)cc5)CC4)ccc3nc2-1` , the value recorded as its GI50 is > 1000 nM

====

test system: IEC6 cells; assay: Cell viability assay, IEC6; format: cell-based; conditions: Rattus norvegicus, 144 h; IEC-6 cells, 6 days, CellTiterGlo; read-out: IEC-6 (IC50)
For each entry below, report its IC50 value.

Given item CC[C@@]1(O)C(=O)OCc2c1cc1n(c2=O)Cc2cc3c(CN(C)C)c(OC4CCN(CCCCCCN(C)c5ccc([C@H]6C[C@@]7(C)C(CC[C@]7(OC(C)=O)C(C)=O)C7CCC8=CC(=O)CCC8=C76)cc5)CC4)ccc3nc2-1 (stereo partly shown) [Compound 9] , the value recorded as its IC50 is > 1000 nM

Given item CC[C@@]1(O)C(=O)OCc2c1cc1n(c2=O)Cc2cc3c(CN(C)C)c(OCCCCCOc4ccc(C(=O)N[C@H]5CC[C@H](Oc6ccc(C#N)c(Cl)c6)CC5)cc4)ccc3nc2-1 [Compound 7] , the value recorded as its IC50 is 501 to 1000 nM

Given item CC[C@@]1(O)C(=O)OCc2c1cc1n(c2=O)Cc2cc3c(CN4CCN(C(=O)C5CCN(c6ccc(C(=O)N[C@H]7CC[C@H](Oc8ccc(C#N)c(Cl)c8)CC7)nn6)CC5)CC4)c(O)ccc3nc2-1 [Compound 14] , the value recorded as its IC50 is > 1000 nM

Given item CC[C@@]1(O)C(=O)OCc2c1cc1n(c2=O)Cc2cc3c(CN4CCN(C(=O)CCCCCOc5ccc(C(=O)N[C@H]6CC[C@H](Oc7ccc(C#N)c(Cl)c7)CC6)cc5)CC4)c(O)ccc3nc2-1 [Compound 12] , the value recorded as its IC50 is > 1000 nM
